Molecular target: T1, DGI-2 polypeptide (UniProt Q15004 1-111, limits assumed)
T1 construct: Soluble recombinant protein coated at 500 ng/well; vector tag of pIVEX2.3-MCS not described for this construct; also called KIAA0101
T1 sequence (looked up): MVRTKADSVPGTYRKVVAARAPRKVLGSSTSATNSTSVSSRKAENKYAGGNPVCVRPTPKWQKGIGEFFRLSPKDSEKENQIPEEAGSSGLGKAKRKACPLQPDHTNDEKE
Experiment: phage ELISA
QUANTITY NAME: DGI-2 (OD)

BINDER | MEAS VALUE
LFSATGCALMSGFCLGSDGSAAAGAPVPYPDPLEPRP [DGI-2-20R-3-C1] | 8.2 OD
WWERFVWGRPVDDGVVVMATAAAGAPVPYPDPLEPRP [DGI-2-20R-3-B1] | 6.3 OD
EGNWFCAVFRGFCVGDRGPEAAAGAPVPYPDPLEPRP [DGI-2-20R-3-A1] | 7.1 OD
